method notes: Cytotoxicity against mouse J774 cells assessed as reduction in cell viability after 48 hrs by resazurin dye-based fluorometric analysis
Consider the following molecules; for each one, report its CC50 at 48 h.
Unit µM implied. Number only.

Query string: Name the recorded CC50 at 48 h of the item COC(=O)[C@]1(C)CCC[C@]2(C)c3cc(O)c(C(C)C)cc3C(=O)C[C@@H]12 in your answer.
Result string: 154

Query string: Report CC50 at 48 h, nothing else, for this molecule: CC(C)c1cc2c(cc1O)[C@@]1(C)CCC[C@@](C)(C(=O)O)[C@@H]1CC2=O
Result string: 219

Query string: Report CC50 at 48 h for CC(C)c1cc2c(cc1O)[C@@]1(C)CCC[C@@](C)(CO)[C@@H]1CC2 [18-HYDROXYFERRUGINOL]
Result string: 23.4

Query string: Quickly give me recorded CC50 at 48 h for CC(C)c1cc2c(cc1O)[C@@]1(C)CCC[C@@](C)(C(=O)O)[C@@H]1CC2
Result string: 85.8

Source: ChEMBL document CHEMBL4316610
